Can you tell me protein stability index for the items I'm about to list?
B1: C9orf9 (parent)
chain: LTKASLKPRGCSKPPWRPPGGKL

Variants of: B1
Experiment: protein stability index of a GFP-peptide fusion (GPS, HEK-293T) (PSI 1-6); higher = more stable;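 note: lentivirally expressed fusions sorted by FACS into six bins by GFP to DsRed ratio, PSI derived from sequencing read proportions per bin multiplied by bin number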
Settings: c terminus: native
One number for each entry.

- sequenceChange: "S5A"
  quantityMeasured: "protein stability index"
  measuredResult: 2.57
- sequenceChange: "L1T"
  quantityMeasured: "protein stability index"
  measuredResult: 1.85

Kindly consider the entry below.
State, in one line, measured protein stability index of R9Y
3.3
